Source of measurements: PubChem BioAssay (NCI)

Tested on: OVCAR-3 ovarian
experiment.notes: NCI tumour cell line growth inhibition, 48 h; in the data active means GI50 below about 0.43 µM; inactive means the rest
Bench note: report the call from True (active), False (inactive)

N#Cc1c(-c2ccc(Cl)cc2)cc(-c2cc(O)ccc2O)nc1N :: False
O=c1cc(N2CCOCC2)oc2c(-c3ccc4c(c3)OCCO4)csc12 :: False
O=C(CCl)Nc1ccc2c(Nc3cc(O)ccc3Cl)ncnc2c1 :: False

Req: Short answer needed: outcome of this test for "Cn1cc(-c2ccc(-c3cn(C)c4ncccc34)[nH]2)c2cccnc21" ?
Resp: False

Req: Then this molecule: "COc1ccc2[nH]c(C(=O)N3CCN(C(=O)OCc4ccc5c(Br)cc(Br)c(O)c5n4)CC3)cc2c1"
Resp: True

====

Form field: GI50 (one value per entry).
System: OVCAR-4 ovarian
experiment.notes: NCI tumour cell line growth inhibition, 48 h

Please review the entries below; each comes with its answer.
N#Cc1ccccc1C#C/C=C\C#Cc1cccs1 :: 34900 nM
N#Cc1c(-c2ccc(Cl)cc2)cc(-c2cc(O)ccc2O)nc1N :: 576 nM
COC(=O)N1c2ccc3c(nc(Cc4ccccc4)n3[C@H]3CCC[C@H](C(=O)O)C3)c2CC[C@@H]1C :: 6840 nM
COc1ccc2[nH]c(C(=O)N3CCN(C(=O)OCc4ccc5c(Br)cc(Br)c(O)c5n4)CC3)cc2c1 :: 302 nM
Clc1ccc(CN2COc3c(ccc4cccnc34)C2)cc1Cl :: 531 nM

For the next question, use this compound.
Req: For the compound "Cc1ccc2nc3ccccc3c(NCc3ccccc3)c2c1" , what GI50 is on record?
Resp: 2640 nM

====

Form field: TGI (one value per entry).
Tested on: SK-MEL-28 melanoma
experiment.notes: NCI tumour cell line growth inhibition, 48 h

Please review the entries below; each comes with its answer.
COC(=O)c1c(C(=O)OC)c2ccc(-c3ccc(Cl)cc3)nn2c1C(=O)c1ccc([N+](=O)[O-])cc1 :: > 100 µM
C=CCCC(CCC=C)(C(=O)O)C(=O)O :: > 100 µM
N#Cc1c(C#N)c(SSc2c(C#N)c(C#N)c(N)n2-c2ccc(F)cc2)n(-c2ccc(F)cc2)c1N :: 19.9 µM

Req: For the compound "C[n+]1cn(-c2ccc([N+](=O)[O-])cn2)c2ccccc21" , what TGI is on record?
Resp: > 100 µM

Req: Then this compound: "N#Cc1cc(-c2nc3cc(F)ccc3s2)ccc1N"
Resp: > 100 µM

Req: Then this compound: "CN(C)c1ccc(Cc2cc(C(C)(C)C)cc(C(C)(C)C)c2O)cc1"
Resp: 42.6 µM

====

System: NCI/ADR-RES ovarian
experiment.notes: NCI tumour cell line growth inhibition, 48 h
measurement.name: TGI

Cc1cc(C)c(S(=O)(=O)N2CCN(c3cc4c(cc3F)c(=O)c(C(=O)O)cn4C3CC3)CC2)c(C)c1 :: > 100 µM
C[C@@H]1CCC2[C@@H](C)[C@@H](OC3CCC(O)CC3)OC3O[C@@]4(C)CCC1[C@]32OO4 (stereo partly specified) :: > 100 µM
C=C(CC[C@@H](C)[C@H]1CC[C@H]2[C@@H]3C[C@@H](O)[C@H]4C[C@@H](O)CC[C@]4(CO)[C@H]3CC[C@]12C)C(C)C :: 12.2 µM
N#Cc1ccccc1C#C/C=C\C#Cc1cccs1 :: > 100 µM
CC(Cc1ccc(O)cc1)NCC(O)c1ccc(O)c(O)c1 (stereo unspecified) :: > 100 µM
CCOC(=O)C(C)(C)Oc1ccc(Cl)cc1 :: > 1000 µM
CC(=O)O[C@H]1C(=O)[C@@]2(C)[C@H]([C@H](OC(=O)c3ccccc3)[C@]3(O)C[C@H](OC(=O)[C@H](O)[C@@H](NC(=O)c4ccoc4)c4ccccc4)C(C)=C1C3(C)C)[C@]1(OC(C)=O)CO[C@@H]1C[C@@H]2O :: > 100 µM
CCOC(=O)C1(C(C)=O)OC(=O)c2cnccc21 (stereo unspecified) :: > 100 µM
O=c1c2ccccc2sc2nc(CCl)nn12 :: > 100 µM
CC1=C2[C@H]3OC(=O)[C@@H](C)[C@@H]3CC[C@@]2(C)C=CC1=O :: > 100 µM

Req: For the compound "CCCCCCC/C(=N\N=C(N)N)c1ccc(O)cc1" , what TGI is on record?
Resp: 23.2 µM
